Listed compounds paired with reported normalized growth
# protocol_description: chemical genetic growth profiling, strain panel (AID 1159580);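 further: tested at 20 µM; growth read once vehicle control cultures reached saturation at 30 °C; 1 = growth at the plate median or of vehicle wells; lower values mean less growth of the strain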
# conditions: S. cerevisiae deletion strains, growth OD, locus YIL125W, strain kgd1, stronger effect = lower value
Among all 5,500 compounds or so, about 2,000 (36%) were called active. Roughly 18% stayed inconclusive and do not appear here. Some of the results follow.
Would you mind answering with just the numeric figure?

Examples with their reported normalized growth follow.
compound=CNC[C@H](O)c1cccc(O)c1 measurement=1.01
compound="Oc1ccc2c3c1OC1[C@@H](O)CC[C@@]4(O)[C@@H](C2)N(CC2CCC2)CC[C@]314 (stereo partly drawn)" measurement=1.01
compound=C[N+]1(C)C[C@H](O)[C@H](C(=O)[O-])C1 measurement=0.996
compound="NS(=O)(=O)c1cc2c(cc1C(F)(F)F)NC(Cc1ccccc1)NS2(=O)=O (stereo not drawn)" measurement=0.999

Requested field: normalized growth. Item: COC1=CC(C)[C@@H]2C[C@H]3OC(=O)C[C@H]4C(C)=C(OC)C(=O)C([C@@]34C)[C@@]2(C)C1=O (stereo partly drawn)
1.01

Requested field: normalized growth. Item: C/C=C/CC(C)C(O)C1C(=O)NC(CC)C(=O)N(C)CC(=O)N(C)C(CC(C)C)C(=O)NC(C(C)C)C(=O)N(C)C(CC(C)C)C(=O)NC(C)C(=O)NC(C)C(=O)N(C)C(CC(C)C)C(=O)N(C)C(CC(C)C)C(=O)N(C)C(C(C)C)C(=O)N1C (stereo not drawn)
1

Requested field: normalized growth. Item: `NC[C@H]1O[C@H](O[C@H]2[C@H](O)[C@@H](O[C@H]3O[C@H](CO)[C@@H](O)[C@H](N)[C@H]3O)[C@H](N)C[C@@H]2N)[C@H](N)[C@@H](O)[C@@H]1O`
0.974

Requested field: normalized growth. Item: CC(=O)N1CCCC1C(=O)O (stereo not drawn)
1.02
